target of assay: human EHMT2 913-1193 (Homo sapiens)
Construct: recombinant purified human EHMT2 913-1193, Viva; purchased Viva
Sequence (Q96KQ7 913-1193): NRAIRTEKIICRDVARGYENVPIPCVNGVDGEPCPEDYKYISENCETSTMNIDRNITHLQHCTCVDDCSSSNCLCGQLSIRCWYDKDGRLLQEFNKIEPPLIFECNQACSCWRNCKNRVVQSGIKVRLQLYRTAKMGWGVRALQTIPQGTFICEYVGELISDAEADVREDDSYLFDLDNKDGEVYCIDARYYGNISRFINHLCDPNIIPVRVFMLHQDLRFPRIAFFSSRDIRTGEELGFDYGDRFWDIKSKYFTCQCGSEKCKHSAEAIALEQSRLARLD
test: EHMT2 enzyme assay on histone peptide substrate (EHMT2 PEP)
Assay type: biochemical
recorded conditions: Table VI; read-out: EHMT2 PEP IC50
assay metric: IC50

COc1ccc(Nc2nc(C)cc(NCCS(=O)(=O)N(C)C)n2)cc1OCCCN1CCCC1 ... 100 to 1000 nM
COc1cc2c(C3CCN(C)CC3)nc(N3CCCC3)nc2cc1OCCCN1CC(O)C1 ... 100 to 1000 nM
CNc1cc(C)nc(Nc2ccc(OC)c(CNCCN3CCC3)c2)n1 ... < 100 nM
CNc1cc(C2CCCCC2)c2cc(OC)c(OCCCN3CCCC3)cc2n1 ... < 100 nM

Turning to the following compound.
Problem: # get_value(readout='IC50', item= `CNc1nc(C2CCN(CCOC)CC2)c2cc(OC)c(OCCCN3CCCC3)cc2n1` )
Solution: < 100 nM
